Numbers sourced from patent US20260042755A1.

Biological target: GPR6 (Homo sapiens)
Construct: expressed in transfected cells; host or cells: CHO cells
Sequence (P46095 whole entry): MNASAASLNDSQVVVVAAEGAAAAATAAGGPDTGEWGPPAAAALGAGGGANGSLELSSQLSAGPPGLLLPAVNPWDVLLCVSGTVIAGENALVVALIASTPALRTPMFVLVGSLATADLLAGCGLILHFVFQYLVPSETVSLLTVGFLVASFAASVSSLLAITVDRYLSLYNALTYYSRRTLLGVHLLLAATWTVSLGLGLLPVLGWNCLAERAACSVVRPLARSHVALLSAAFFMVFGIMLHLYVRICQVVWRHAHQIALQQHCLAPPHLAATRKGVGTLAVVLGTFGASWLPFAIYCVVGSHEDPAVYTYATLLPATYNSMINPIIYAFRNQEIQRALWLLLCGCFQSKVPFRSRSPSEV
Assay: GPR6 antagonist functional cAMP assay (LANCE Ultra cAMP TR-FRET, CHO cells stably expressing GPR6)
Type: cell-based
Details: procedure of Example 24
Description: Example 56. GPR6 and GPR3 Antagonist Functional cAMP Assay CHO cells stably expressing GPR6 or GPR3 receptors were dissociated from cell culture flasks and incubated for 2 h at 37° C. in a 10 cm dish in a humidified incubator. […] To measure cAMP levels, LANCE® Ultra cAMP assay (Perkin Elmer), a homogeneous time-resolved fluorescence resonance energy transfer (TR-FRET) immunoassay was used following manufacturer's recommendations. […] FRET values were reported as readings obtained at 665 nm. […]
pIC50: −log10 of the molar value.
quantity_name: pIC50

CC(=O)N1CCc2nc(C3=CCC(Oc4ccc(F)cc4F)CC3)c(-c3ncco3)nc2C1 (centres unmarked) [Compound 303]: ≤ 4.52

Hello, please tell me recorded pIC50 for this one: CCn1cc(-c2nc3cnc(C(=O)C(C)(C)O)cc3nc2N2CCN(Cc3ccc(F)cc3F)CC2)cn1 [Compound 624] 6.00 to 7.00

Hello, please tell me recorded pIC50 for this one: CC(C)(O)[C@H](O)c1cc2nc(N3CCN(Cc4cc(F)ccc4F)CC3)c(-c3cnn(CF)c3)nc2cn1 (single isomer, unassigned) [Compound 726] 6.00 to 7.00

Hello, please tell me recorded pIC50 for this one: CC(=O)N1CCc2nc(N3CCN(Cc4cc(Cl)c(F)cc4F)CC3)c(-c3cnn(C)c3)nc2C1 [Compound 360] 6.00 to 7.00

Hello, please tell me recorded pIC50 for this one: CC(C)(O)[C@](C)(O)c1cc2nc(-c3cnn(C4CC4)c3)c(N3CCN(Cc4ccccc4F)CC3)nc2cn1 (single isomer, unassigned) [Compound 775] 6.00 to 7.00

Hello, please tell me recorded pIC50 for this one: CC(C)(O)Cc1cc2nc(N3CCC(Oc4ccc(F)cc4F)CC3)c(-c3cnn(C4CC4)c3)nc2cn1 [Compound 705] 6.00 to 7.00

Hello, please tell me recorded pIC50 for this one: CC(C)n1cc(-c2nc3cnc(C(O)C(C)(C)O)cc3nc2N2CCN(Cc3ccc(F)cc3F)CC2)cn1 (centres unmarked) [Compound 298] 6.00 to 7.00

Hello, please tell me recorded pIC50 for this one: O=C(O)c1cc2nc(-c3cnn(CF)c3)c(N3CCN(Cc4ccc(F)cc4F)CC3)nc2cn1 [Compound 765] 4.52 to 6.00

Hello, please tell me recorded pIC50 for this one: CC(C)(O)[C@@](C)(O)c1cc2nc(N3CCN(Cc4ccc(F)cc4F)CC3)c(-c3cnn(C4CC4)c3)nc2cn1 (single isomer, unassigned) [Compound 667] 6.00 to 7.00

----------
Target: GPR6 (Homo sapiens)
Construct: expressed in transfected cells; host or cells: CHO cells
Test: GPR6 antagonist functional cAMP assay (LANCE Ultra cAMP TR-FRET, CHO cells stably expressing GPR6)
Type: cell-based
Details: CHO cells stably expressing GPR6, cAMP assay (Example 24)
Reported values of IC50 for individual entries

Examples from the recorded data:
COc1cncc(-c2nc3cnc(C)cc3nc2N2CCC(Oc3ccc(F)cc3F)CC2)n1 [Compound 230]: 1000 to 30000 nM
Fc1ccc(OC2CCN(c3nc4ccncc4nc3-c3ncn[nH]3)CC2)c(F)c1 [Compound 96]: 1000 to 30000 nM

Hello, please tell me recorded IC50 for this one: COc1ncc(-c2nc3c(nc2N2CCC(Oc4ccc(F)cc4F)CC2)CCN(C(C)=O)C3)nc1OC [Compound 215] 100 to 1000 nM

Hello, please tell me recorded IC50 for this one: Cn1cc(-c2nc3cnc([C@@H](O)C(C)(C)O)cc3nc2N2CCN(Cc3ccc(F)cc3F)CC2)cn1 (single isomer, unassigned) [Compound 261] 100 to 1000 nM
